molecular target: pSer413(Im) peptide (human); experiment: SPR (Biacore 3000), antibody captured by anti-mouse antibody, peptide as analyte, single cycle kinetics
Sequence (peptide, as listed by the source): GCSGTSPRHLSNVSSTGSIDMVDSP
Non-standard residues stand in square brackets, D forms with d. No end group written: not given here. pS = N[C@@H](COP(=O)(O)O)C(=O)O
endpoint: kon (M⁻¹ s⁻¹)
One number for each entry, in M⁻¹ s⁻¹.

INSERT INTO assay_data (binder, endpoint, reading) VALUES
  ('Ta1505 (antibody, V domains shown, also called Ta1505-2) VH: EVQLVESGGGLVQPKGSLKLSCAASGFAFNSFALNWVRQAPGKSLEWVVHIRSKTNNYATFYADSVKDRFTVSRDDSQSMVYLQMNNLKTEDTGIYYCVRRGPRDSWFGYWGQGTLVTVSA VL: DILMTQTPLSLPVSLGDQASISCRSSQNIVHSNGNTYLEWYLQKPGQSPKVLIYTVSNRFSGVPDRFSGSGSGTDFTLKISRVEAEDLGVYYCFQGSHLPLTFGGGTKL', 'kon', 129000),
  ('Ta1507 (antibody, V domains shown, also called Ta15 Series) VH: EIQLVESGGGLVQPKGSLKLSCAASGFAFSSFALNWVRQAPGKSLDWVAHIRSKANHYVTFYADSVKDRFTVSRDDSQSMVYLQMNNLKTEDTGIYYCVRRGPRDSWFGYWGQGTLVTVSA VL: DVLLTQTPLSLPVSLGDQASISCRSSQNIVHSNGNTYLEWYLQKPGQSPKVLIYTVSNRFSGVPDRFSGSGSGTDFTLKISRVEAEDLGVYYCFQGSHLPLTFGGGTKL', 'kon', 127000);

State the recorded kon for every item in the following list.
1. Ta1502 (antibody, V domains shown, also called Ta15 Series) VH: EVQLVESGGGLVQPKGSLKLSCAASGFAFNSFALNWVRQAPGKSLEWVVHIRSKTNNYATFYADSVKDRFTVSRDDSQNMVYLQMNNLKTEDTGIYYCVRRGPRDSWFGYWGQGTLVTVSA VL: DILMTQTPLSLPVSLGDQASISCRSSQNIVHSNGNTYLEWYLQKPGQSPKVLIYTVSNRFSGVPDRFSGSGSGTDFTLKISRVEAEDLGVYYCFQGSHLPLTFGGGTKL
2. Ta1508 (antibody, V domains shown, also called Ta15 Series) VH: EVHLVESGGGLVQPKGSLKLSCAASGFAFNSFAMNWVRQAPGKGLDWIAHIRSKTNNYVTFYADSVKGRFSISRDDSQSMVYLQMNNLQTEDTGIYYCVRRGPRDSWFGYWGQGTLVTVSA VL: VVLMTQTPLSLPVSLGDQASISCRSSQNIVHSNGNTYLEWYLQKPGQSPKVLIYTVSNRFSGVPDRFSGSGSGTDFTLKISRVEAEDLGVYYCFQGSHLPLTFGGGTKL
3. Ta1506 (antibody, V domains shown, also called Ta15 Series) VH: EVHLVESGGGLVQPKGSLKLSCAASGFAFNSFAMNWVRQAPGKALDWIAHIRSKTNNYVTFYADSVKGRFSISRDDSQSMVYLQMNNLQTEDTGIYYCVRRGPRDSWFGYWGQGTLVTVSA VL: GVLMTQIPLSLPVSLGDQASISCRSSQNIVHSNGNTYLEWYLQKPGQSPKVLIYTVSNRFSGVPDRFSGSGSGTDFTLKISRVEAEDLGVYYCFQGSHLPLTFGGGTKL
4. Ta1509 (antibody, V domains shown, also called Ta15 Series) VH: EVQLVESGGGLVQPKGSLKLSCAASGFAFNSFAMNWVRQAPGKGLDWIAHIRSKSNNYVTFYADSVKDRFIISRDDSQSMIYLQMNNLKTEDSGIYYCVRRGPRDSWFGYWGQGTLVTVSA VL: DVLMTQSPLSLPVSLGDQASISCRSSQNIVHTNGNTYLEWYLQKPGQSPKVLIYTVSNRFSGVPDRFSGSGSGTDFTLKISRVEAEDLGVYYCFQGSHLPLTFGGGTKL
5. Ta1501 (antibody, V domains shown, also called Ta15 Series) VH: EVHLVESGGELVQPKGSLKLSCAASGFAFNSFAMNWVRQTPGKGLNWVAHIRSKTNNYATFYADSVKDRFTISRDDSQNMLYLQMNNLKTEDTGIYYCVRRGPRDSWFGYWGQGTLVTVSA VL: DVLMTQTPLSLPVSLGDHASISCRSSQNIVHSNGNTYLEWYLQKPGQSPKVLIYTVSNRFSGVPDRFSGSGSGTDFTLKISRVEAEDLGVYYCFQGSHLPLTFGGGTKL

a:
1: 112000; 2: 145000; 3: 199000; 4: 87100; 5: 56400
